Kindly supply the reported Ki values for the records listed here.
- target of assay: isolated recombinant JAK1 kinase domain (Homo sapiens, UniProt P23458)
- Sequence (P23458 875-1153 limits assumed): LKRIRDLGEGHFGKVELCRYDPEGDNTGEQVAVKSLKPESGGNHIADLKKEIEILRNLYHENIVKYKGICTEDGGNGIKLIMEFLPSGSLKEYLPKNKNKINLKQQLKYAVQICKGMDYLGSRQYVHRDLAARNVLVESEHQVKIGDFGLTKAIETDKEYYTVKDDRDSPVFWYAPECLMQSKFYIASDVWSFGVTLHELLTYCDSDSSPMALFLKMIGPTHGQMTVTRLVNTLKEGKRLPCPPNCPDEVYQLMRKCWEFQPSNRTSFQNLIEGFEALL
- procedure details: JAK enzyme assay (Caliper LabChip), JAK1 kinase domain
- test settings: ATP 25 μM; 1.5 nM JAK1; Morrison tight binding model
Quick reminder: number only, in nM, skip the unit.

Prompt: Entry CNC(=O)Cn1cc(NC(=O)c2cnn3cccnc23)c(-c2cc(SC)ccc2OC(F)F)n1 : reported Ki = ?
Completion: 0.21

Prompt: Requested read-out: Ki. Entry: CC(C)Sc1ccc(OC(F)F)c(-c2nn(CCO)cc2NC(=O)c2cnn3cccnc23)c1
Completion: 0.58

Prompt: Can you look up the measured Ki of O=C(Nc1cn(Cc2cn(C3CCN([C@H]4CCOC4)CC3)nn2)nc1-c1cc(SC2CC2)ccc1OC(F)F)c1cnn2cccnc12 (stereo in doubt) for me?
Completion: 0.56

Prompt: Value lookup for Ki; key = CC(=O)N1CCC(Sc2ccc(OC(F)F)c(-c3n[nH]cc3NC(=O)c3cnn4cccnc34)c2)CC1
Completion: 1.02

Prompt: // query Ki value for entry O=C(Nc1cn(Cc2cn(C3CCN([C@H]4CCOC4)CC3)nn2)nc1-c1cc(SC2COC2)ccc1OC(F)F)c1cnn2cccnc12 (stereo in doubt)
Completion: 0.66

Prompt: Need Ki of O=C(Nc1cn(CC(=O)N2CCC(N3CCOCC3)CC2)nc1-c1cc(SC(F)F)ccc1OC(F)F)c1cnn2cccnc12 , thanks.
Completion: 0.34

Prompt: What Ki value was documented for this compound, O=C(Nc1c[nH]nc1-c1cc(SC(F)F)ccc1OC(F)F)c1cnn2cccnc12 ?
Completion: 0.16

----------
Provide the recorded pKi for the entries that follow.
- target of assay: isolated recombinant JAK2 kinase domain (Homo sapiens)
- Sequence (O60674 849-1124 limits assumed): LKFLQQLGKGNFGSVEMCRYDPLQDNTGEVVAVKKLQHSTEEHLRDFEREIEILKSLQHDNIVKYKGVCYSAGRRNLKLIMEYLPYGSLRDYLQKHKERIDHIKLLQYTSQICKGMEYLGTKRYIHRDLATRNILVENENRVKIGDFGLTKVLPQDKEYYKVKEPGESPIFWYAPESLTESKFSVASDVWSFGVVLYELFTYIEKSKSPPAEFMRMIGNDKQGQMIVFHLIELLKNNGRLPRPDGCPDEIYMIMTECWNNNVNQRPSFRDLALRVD
- procedure details: JAK enzyme assay (Caliper LabChip), JAK2 kinase domain
- test settings: ATP 25 μM, 0.2 nM JAK2, Morrison tight binding model
pKi (log units): -log10 of the concentration in mol/L.

Prompt: Under isolated recombinant JAK2 kinase domain (Homo sapiens): pKi value of O=C(Nc1cn(C2CN(C3CC(O)C3)C2)nc1-c1cc(SC2COC2)ccc1OC(F)F)c1cnn2cccnc12 (single isomer, unassigned) [Example 39] ?
Completion: 8.93

Prompt: Reported pKi for isolated recombinant JAK2 kinase domain (Homo sapiens), given O=C(Nc1cn(C2CN(C3CC(O)C3)C2)nc1-c1cc(SC2COC2)ccc1OC(F)F)c1cnn2cccnc12 (single isomer, unassigned) [Example 40] ?
Completion: 8.99

Prompt: Give pKi (isolated recombinant JAK2 kinase domain (Homo sapiens)) of the following compound: CC(CO)Sc1ccc(OC(F)F)c(-c2n[nH]cc2NC(=O)c2cnn3cccnc23)c1 (stereo not drawn) [Example 4]
Completion: 9.82

Prompt: Form: Entry = O=C(Nc1c[nH]nc1-c1cc(SC(F)(F)F)ccc1OC(F)F)c1cnn2cccnc12 [Example 5] | System = isolated recombinant JAK2 kinase domain (Homo sapiens) | pKi = ____
Completion: 9.68

Prompt: API: value(readout= pKi, system= isolated recombinant JAK2 kinase domain (Homo sapiens), query= CN(C)C(=O)Cn1cc(NC(=O)c2cnn3cccnc23)c(-c2cc([S+](C)[O-])ccc2OC(F)F)n1 (stereo not drawn) [Example 48] )
Completion: 8.35

Prompt: Lab request: please report pKi under test system isolated recombinant JAK2 kinase domain (Homo sapiens) for O=C(Nc1c[nH]nc1-c1cc(SC2CCCC2)ccc1OC(F)F)c1cnn2cccnc12 [Example 7]
Completion: 9.43

Prompt: Can you look up pKi on isolated recombinant JAK2 kinase domain (Homo sapiens) for COC(=O)N1CCN(CC2CCN(C(=O)Cn3cc(NC(=O)c4cnn5cccnc45)c(-c4cc(SC(CF)CF)ccc4OC(F)F)n3)CC2)CC1 [Example 18] ?
Completion: 8.89

Prompt: Return pKi measured with isolated recombinant JAK2 kinase domain (Homo sapiens) given this compound: O=C(Nc1cn(Cc2cn(C3CCN([C@H]4CCOC4)CC3)nn2)nc1-c1cc(SC2CC2)ccc1OC(F)F)c1cnn2cccnc12 (stereo in doubt) [Example 13]
Completion: 9.44

Prompt: Hello, I am looking for reported pKi with isolated recombinant JAK2 kinase domain (Homo sapiens) for CC(=O)N1CCC(Sc2ccc(OC(F)F)c(-c3n[nH]cc3NC(=O)c3cnn4cccnc34)c2)CC1 [Example 34] . Could you help?
Completion: 9.41

Prompt: Quick check: pKi on isolated recombinant JAK2 kinase domain (Homo sapiens), item CC(C)Sc1ccc(OC(F)F)c(-c2nn(Cc3cn(C4CCN([C@H]5CCOC5)CC4)nn3)cc2NC(=O)c2cnn3cccnc23)c1 (stereo in doubt) [Example 11, formic acid] ?
Completion: 9.31

Prompt: Reported pKi for isolated recombinant JAK2 kinase domain (Homo sapiens), given CNC(=O)Cn1cc(NC(=O)c2cnn3cccnc23)c(-c2cc(SC)ccc2OC(F)F)n1 [Example 45] ?
Completion: 9.68

Prompt: Find the measured pKi: item O=C(Nc1cn(CCO)nc1-c1cc(SC(CF)CF)ccc1OC(F)F)c1cnn2cccnc12 [Example 22] , target or system isolated recombinant JAK2 kinase domain (Homo sapiens).
Completion: 9.72

----------
- target of assay: isolated recombinant JAK1 kinase domain (Homo sapiens, UniProt P23458)
- procedure details: JAK enzyme assay (Caliper LabChip), JAK1 kinase domain
- test settings: ATP 25 μM; 1.5 nM JAK1; Morrison tight binding model
Returns the class for an entry based on its Ki. Class ranges: low (below 0.4 nM), middle (0.4 nM to below 0.8 nM), high (0.8 nM or more)

Prompt: Note: place this compound into its band. Item: O=C(Nc1cn(CC(=O)N2CC=CCC2)nc1-c1cc(SC2COC2)ccc1OC(F)F)c1cnn2cccnc12 [Example 25]
Completion: low

Prompt: Lab note: sort O=C(Nc1c[nH]nc1-c1cc(SC2CCCCC2)ccc1OC(F)F)c1cnn2cccnc12 [Example 2] into the matching Ki band.
Completion: middle

Prompt: For the record CN1CCCC(Sc2ccc(OC(F)F)c(-c3n[nH]cc3NC(=O)c3cnn4cccnc34)c2)C1 (single isomer, unassigned) [Example 38] , report the class its Ki corresponds to.
Completion: high

Prompt: Textbook exercise: identify the category of the compound given here, CC(C)Sc1ccc(OC(F)F)c(-c2nn(Cc3cn(C4CCN([C@H]5CCOC5)CC4)nn3)cc2NC(=O)c2cnn3cccnc23)c1 (stereo in doubt) [Example 11, formic acid] , according to its measured value.
Completion: middle

Prompt: Field: class (Ki) — entry: CC(C)Sc1ccc(OC(F)F)c(-c2nn(Cc3cn(C4CCN([C@@H]5CCOC5)CC4)nn3)cc2NC(=O)c2cnn3cccnc23)c1 (stereo in doubt) [Example 12, formic acid]
Completion: middle

Prompt: Each compound maps to one class by Ki. Which class for O=C(Nc1c[nH]nc1-c1cc(SC2CCCC2)ccc1OC(F)F)c1cnn2cccnc12 [Example 7] ?
Completion: middle

Prompt: Bin? CN(C)C(=O)Cn1cc(NC(=O)c2cnn3cccnc23)c(-c2cc(SC(F)F)ccc2OC(F)F)n1 [Example 33]
Completion: low

Prompt: Form field 'band' for O=C(Nc1c[nH]nc1-c1cc(SC(F)(F)F)ccc1OC(F)F)c1cnn2cccnc12 [Example 5]
Completion: middle

Prompt: Which bin, given its Ki, does O=C(Nc1c[nH]nc1-c1cc(SC2CCCNC2)ccc1OC(F)F)c1cnn2cccnc12 (single isomer, unassigned) [Example 36] occupy?
Completion: high

Prompt: Bin? O=C(Nc1c[nH]nc1-c1cc(SC2CCCNC2)ccc1OC(F)F)c1cnn2cccnc12 (single isomer, unassigned) [Example 37]
Completion: high

Prompt: Place this compound in its band: CN(C)C(=O)Cn1cc(NC(=O)c2cnn3cccnc23)c(-c2cc(SC3COC3)ccc2OC(F)F)n1 [Example 26]
Completion: low

Prompt: // bin(item) where item = CSc1ccc(OC(F)F)c(-c2nn(CC(=O)N3CCC(O)CC3)cc2NC(=O)c2cnn3cccnc23)c1 [Example 23]
Completion: low
